molecular target: HBO-KAT7 (Homo sapiens); construct: encoding amino acid residues 325 to 611 (Uniprot 095251-1) of human KAT7; made in house; host or cells: E. coli BL21 DE3 RIL; assay: Revised Acetyltransferase Biochemical Assay, KAT7; conditions: Table 9 (HBO-KAT7), 1 μM Acetyl coenzyme A
pIC50: −log10 of the molar value.
Listing: pIC50 of selected molecules
MEASURED ENDPOINT: pIC50

- O=C(NCCc1ccccc1C(=O)O)C1=Nc2ccc(I)cc2S(=O)(=O)N1: 5.02
- O=C(NCC(F)(c1ccccc1)c1ncco1)C1=Nc2ccc(Cl)cc2S(=O)(=O)N1 (stereo not shown): 6.32
- O=C(NCC(c1ncco1)c1ccccc1OC(F)F)C1=Nc2ccc(I)cc2S(=O)(=O)N1 (stereo not shown): 7.55
- O=C(NCCc1ccccc1-c1n[nH]c(=O)o1)C1=Nc2ccccc2S(=O)(=O)N1: 5.65

----------
biological target: MOF-KAT8 (Homo sapiens, UniProt Q9H7Z6); experiment: Revised Acetyltransferase Biochemical Assay, KAT8
pIC50: −log10 of the molar value.
MEASURED ENDPOINT: pIC50

- O=C(NCC(c1ccccc1)c1ncco1)C1=Nc2ccccc2S(=O)(=O)N1 (stereo not shown) [Example 46]: 4.00
- O=C(NCC(c1ccccc1)c1nnc(CC(F)(F)F)o1)C1=Nc2ccc(I)cc2S(=O)(=O)N1 (stereo not shown) [Example 181]: 4.51
- COCc1ccccc1CCNC(=O)C1=Nc2ccc(I)cc2S(=O)(=O)N1 [Example 14]: 4.42

----------
Molecular target: MOF-KAT8 (Homo sapiens)
Sequence (Q9H7Z6 177-447): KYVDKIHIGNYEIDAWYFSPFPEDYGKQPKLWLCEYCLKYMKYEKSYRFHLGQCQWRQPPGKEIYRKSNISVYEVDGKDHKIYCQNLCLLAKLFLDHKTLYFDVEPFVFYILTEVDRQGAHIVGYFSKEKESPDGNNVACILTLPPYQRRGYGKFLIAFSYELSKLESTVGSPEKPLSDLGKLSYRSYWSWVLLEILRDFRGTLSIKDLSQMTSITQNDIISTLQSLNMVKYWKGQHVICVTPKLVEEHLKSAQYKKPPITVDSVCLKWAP
Test: Revised Acetyltransferase Biochemical Assay, KAT8
MEASURED ENDPOINT: IC50 (µM)

• O=C(NCC(F)(F)c1ccccc1OC(F)F)C1=Nc2ccc(I)cc2S(=O)(=O)N1 [Example 231] = 6.53
• O=C(NCC(c1ccccc1)c1ncco1)C1=Nc2ccc(O)cc2S(=O)(=O)N1 (centres unmarked) [Example 8] = 10.5
• O=C(NCC(c1ncco1)c1ccccc1F)C1=Nc2ccc(Cl)cc2S(=O)(=O)N1 (centres unmarked) [Example 236] = 19.6
• O=C(NCC(c1ccccc1)c1ncco1)C1=Nc2ccc(-c3nccs3)cc2S(=O)(=O)N1 (centres unmarked) [Example 134] = 15.7
• O=C(NCC(c1ncco1)c1ccccc1F)C1=Nc2ccc(I)cc2S(=O)(=O)N1 (centres unmarked) [Example 235] = 3.23
• CC(=O)c1ccc2c(c1)S(=O)(=O)NC(C(=O)NCC(c1ccccc1)c1ncco1)=N2 (centres unmarked) [Example 43] = 71.6
• Nc1nnc(C(CNC(=O)C2=Nc3ccc(I)cc3S(=O)(=O)N2)c2ccccc2)o1 (centres unmarked) [Example 189] = 28.7

----------
Each entry below carries its recorded pIC50.
Tested on: histone H3 Lysine 14 acetylation (HBO1 mediated) in U2OS cells
Test: Histone H3 Lysine 14 Acetylation Biomarker Assay (384-well, U2OS)
Type: cell-based
Settings: Homo sapiens, serum free medium, 24 hours incubation
Experimental: Compounds may be tested for their ability to inhibit acetylation of the histone H3 Lysine 14 (which is HBO1 mediated) marker in the following assay: The cell line U2OS was seeded at a density of 3,000 cells per well in 384-well optical quality tissue culture plates in RPMI medium supplemented with 10% foetal bovine serum and 10 mM Hepes. The cells were allowed to adhere for 24 hours under standard culture conditions (37 degree Celsius, 5% CO2). […] Plates were washed and read on a […]
pIC50: −log10 of the molar value.
MEASURED ENDPOINT: pIC50

• Cc1cc(O)cc(C(CNC(=O)C2=Nc3ccc(Cl)cc3S(=O)(=O)N2)c2ncco2)c1 (centres unmarked) = 5.78
• O=C(NCC(F)(c1ccccc1)c1ncco1)C1=Nc2ccc(I)cc2S(=O)(=O)N1 (centres unmarked) = 5.99
• COCc1nnc(C(CNC(=O)C2=Nc3ccc(I)cc3S(=O)(=O)N2)c2ccccc2)o1 (centres unmarked) = 4.98
• O=C(NCCc1ccccc1-n1ncc(CO)n1)C1=Nc2ccc(I)cc2S(=O)(=O)N1 = 5.31
• CC(O)c1ccc2c(c1)S(=O)(=O)NC(C(=O)NCC(c1ccccc1)c1ncco1)=N2 (centres unmarked) = 5.38
• COc1cccc(C(CNC(=O)C2=Nc3ccc(I)cc3S(=O)(=O)N2)c2ncco2)c1 (centres unmarked) = 6.31
• O=C(NCC(F)(F)c1ccccc1OC(F)F)C1=Nc2ccc(I)cc2S(=O)(=O)N1 = 5.41
• O=C(NCC(c1ccccc1)c1nccs1)C1=Nc2ccc(I)cc2S(=O)(=O)N1 (centres unmarked) = 6.46

----------
molecular target: MOZ-KAT6A (Homo sapiens, UniProt Q92794, A567V); construct: encoding amino acid residues 507 to 778 (Uniprot Q92794-1) of human KAT6A; made in house; host or cells: E. coli BL21 DE3; test: Revised Acetyltransferase Biochemical Assay, KAT6A; details: Table 8 (MOZ-KAT6A), 1 μM Acetyl coenzyme A
Sequence (Q92794 507-778 A567V limits assumed): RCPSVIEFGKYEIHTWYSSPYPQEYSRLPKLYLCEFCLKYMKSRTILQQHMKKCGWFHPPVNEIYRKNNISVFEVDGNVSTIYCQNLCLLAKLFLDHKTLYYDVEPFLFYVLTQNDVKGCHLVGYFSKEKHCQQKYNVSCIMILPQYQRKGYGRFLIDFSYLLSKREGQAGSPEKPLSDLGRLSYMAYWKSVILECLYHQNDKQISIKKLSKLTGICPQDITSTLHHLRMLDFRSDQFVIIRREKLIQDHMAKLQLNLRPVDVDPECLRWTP
MEASURED ENDPOINT: IC50

• O=C(NCC(c1ccccc1)c1ncco1)C1=Nc2ccncc2S(=O)(=O)N1 (stereo not shown) = 417 nM
• COC(=O)NC(CNC(=O)C1=Nc2ccccc2S(=O)(=O)N1)C1CCCCC1 (stereo not shown) = 12300 nM
• CC(NS(C)(=O)=O)c1ccc2c(c1)S(=O)(=O)NC(C(=O)NCC(c1ccccc1)c1ncco1)=N2 (stereo not shown) = 303 nM
• O=C(NCC(c1ccccc1)c1nnc(C(F)F)o1)C1=Nc2ccc(I)cc2S(=O)(=O)N1 (stereo not shown) = 42 nM

----------
molecular target: HBO-KAT7 (Homo sapiens, UniProt O95251); construct: encoding amino acid residues 325 to 611 (Uniprot 095251-1) of human KAT7; made in house; host or cells: E. coli BL21 DE3 RIL; assay: Revised Acetyltransferase Biochemical Assay, KAT7; settings: Table 9 (HBO-KAT7), 1 μM Acetyl coenzyme A
Sequence (O95251 with tags, fused parts or gaps): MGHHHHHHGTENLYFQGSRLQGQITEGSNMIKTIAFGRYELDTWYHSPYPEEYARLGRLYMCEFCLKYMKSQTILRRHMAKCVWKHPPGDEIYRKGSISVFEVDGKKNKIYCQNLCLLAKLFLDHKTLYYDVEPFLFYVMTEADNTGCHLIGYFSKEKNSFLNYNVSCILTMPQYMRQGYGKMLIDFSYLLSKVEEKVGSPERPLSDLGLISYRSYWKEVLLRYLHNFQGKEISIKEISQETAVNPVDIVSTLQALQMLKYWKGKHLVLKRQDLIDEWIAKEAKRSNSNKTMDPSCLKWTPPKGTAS
MEASURED ENDPOINT: log10 of IC50 (log10 of the value in nM)

* COC(=O)NC(CNC(=O)C1=Nc2ccccc2S(=O)(=O)N1)c1ccccc1 (centres unmarked) | 4.39
* COCc1ccccc1CCNC(=O)C1=Nc2ccc(I)cc2S(=O)(=O)N1 | 1.92
* O=C(NCCc1ccccc1-n1nccn1)C1=Nc2ccc(I)cc2S(=O)(=O)N1 | 2.30
* O=C(NCC(CO)C1CCCCC1)C1=Nc2ccc(Cl)cc2S(=O)(=O)N1 (centres unmarked) | 3.82
* O=C(NCCc1ccccc1-c1cccnc1)C1=Nc2ccccc2S(=O)(=O)N1 | 4.06
* COc1ccccc1C(O)CNC(=O)C1=Nc2ccc(I)cc2S(=O)(=O)N1 (single isomer, unassigned) | 3.56
* O=C(NCC(c1ccccc1)c1ncco1)C1=Nc2ccc(C(F)(F)F)cc2S(=O)(=O)N1 (centres unmarked) | 2.15
* O=C(NCCc1ccccc1-n1ccnc1)C1=Nc2ccc(I)cc2S(=O)(=O)N1 | 3.36

----------
target: HBO-KAT7 (Homo sapiens, UniProt O95251); construct: encoding amino acid residues 325 to 611 (Uniprot 095251-1) of human KAT7; made in house; host or cells: E. coli BL21 DE3 RIL; assay: Acetyltransferase biochemical assay (AlphaScreen), KAT7; conditions: Table 3 (HBO-KAT7); 0.4 μM Acetyl coenzyme A, histone H3.1, 40 nM enzyme
Define the label as Met when IC50 is strictly less than 7 µM and as Not met in all remaining cases.

• O=C(NCC(O)c1cccc(C(F)(F)F)c1)C1=Nc2ccc(I)cc2S(=O)(=O)N1 (stereo not drawn) = Not met
• COc1ccccc1CCNC(=O)C1=Nc2ccc(I)cc2S(=O)(=O)N1 = Met
• O=C(NCC(c1ccccc1)c1ncco1)C1=Nc2ccc(I)cc2S(=O)(=O)N1 (single isomer, unassigned) [Example 147] = Met
• [C-]#[N+]c1ccc2c(c1)S(=O)(=O)NC(C(=O)NCC(c1ccccc1)c1ncco1)=N2 (single isomer, unassigned) [Example 142] = Met
• O=C(NCC(O)c1ccccc1)C1=Nc2ccc(I)cc2S(=O)(=O)N1 (stereo not drawn) = Not met
• O=C(NCCc1cccc(O)c1)C1=Nc2ccc(I)cc2S(=O)(=O)N1 = Not met

----------
biological target: HBO-KAT7 (Homo sapiens); construct: encoding amino acid residues 325 to 611 (Uniprot 095251-1) of human KAT7; made in house; host or cells: E. coli BL21 DE3 RIL; assay: Acetyltransferase biochemical assay (AlphaScreen), KAT7; settings: Table 3 (HBO-KAT7); 0.4 μM Acetyl coenzyme A, histone H3.1, 40 nM enzyme
pIC50: −log10 of the molar value.
Reported pIC50 values for the following compounds.
MEASURED ENDPOINT: pIC50

• O=C(NCC(c1ccccc1)c1ncco1)C1=Nc2ccc(-c3nccs3)cc2S(=O)(=O)N1 (centres unmarked) = 5.48
• COC(CNC(=O)C1=Nc2ccc(I)cc2S(=O)(=O)N1)c1ccccc1OC(F)F (centres unmarked) = 5.80
• O=C(NCC(c1ccccc1F)n1cccc1)C1=Nc2ccccc2S(=O)(=O)N1 (centres unmarked) = 5.35
• O=C(NCC(c1ccccc1)c1ncco1)C1=Nc2ccccc2S(=O)(=O)N1 (single isomer, unassigned) [Example 136] = 6.20
• O=C(NCCc1ccccc1I)C1=Nc2ccccc2S(=O)(=O)N1 = 5.23
• N#Cc1ccccc1CCNC(=O)C1=Nc2ccccc2S(=O)(=O)N1 = 4.50
• CCOC(=O)C(CNC(=O)C1=Nc2ccccc2S(=O)(=O)N1)c1ccccc1 (centres unmarked) = 4.58
